System: TNF-α secretion in THP-1 cells
Assay: cells
Settings: Homo sapiens, THP-1, 5 h, read-out: IC50 in inhibiting TNF-α secretion in THP-1 cells
experimental_endpoint: IC50

// IC50 lookup, key: `CN(C)CCn1cc2cc(NC(=O)c3cccc(C(F)(F)F)n3)c(C(C)(C)O)cc2n1`
55 nM
